# Tested on: LXRa homodimer (NR concentration 270 nM)
# measurement notes: PBM binding z-score (relative to random genomic background probes); higher = stronger binding; sequences stand for … in GC…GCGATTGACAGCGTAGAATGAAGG
Use 0.5 as the dividing line for PBM binding z-score, with the line itself on the Met side and lower values as Not met.

For orientation, consider the following solved cases.
{"sequence chain": "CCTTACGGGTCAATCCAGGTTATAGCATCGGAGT", "label class": "Met"}
{"sequence chain": "AGAGTGAGGTTATTAAGATCAGGGAATTGCGGTC", "label class": "Met"}

query: Reported PBM binding z-score reaches at least 0.5 for TCTAGGAGGCCAGAGGGTCACTCAAGAGGTACGG ?
result: Not met

query: Quick check, PBM binding z-score >= 0.5? CCTAATGGGCCAAAGGTCATTGATTCCAATGCTC
result: Met

query: Could you verify whether the entry TATACAGTGTCAAAGGCCAGAGTACGAATGTCGA shows PBM binding z-score of no less than 0.5?
result: Not met

query: hey, is PBM binding z-score for this one >= 0.5? TGTCAAAGTTCAAAGCTAACGTAAGTATCCACAC
result: Met

query: Is the recorded value of PBM binding z-score equal to or greater than 0.5 for this sequence? TCTCGGAGGACACGACGGTCAGAGCTTTCCAGAG
result: Not met

query: Hi team, for GCTTGAAGATCAAGGTTAAGAAAGACTAAGCTAA , is the recorded PBM binding z-score at or above 0.5?
result: Not met

query: State whether the measured PBM binding z-score reaches 0.5, counting equality as reaching it, for CAAACTAAGTCAAGAGGTCAAAGTCCGCTTCCCG
result: Met

query: Dear colleague, could you confirm whether CATTCAGGGTCAGCTAGGCCAGAGTAGGGACGGC has PBM binding z-score at or above 0.5?
result: Not met

query: Please indicate if the recorded PBM binding z-score for ATATGTAGGTTACATCCGGGTCAGTCAGGCTATG meets or exceeds 0.5.
result: Met

query: Confirm if PBM binding z-score reported for the sequence AGAACGAGGGCAAAGAGTTGATAGCACGGGTGGC is 0.5 or above.
result: Not met

query: Item ATCTCTAGGTAACCAAGTTCAGTGGATGCCGAAC with PBM binding z-score of 0.5 or above?
result: Met

query: Tell me whether PBM binding z-score is at least 0.5 here: TAGCCTAGCTCATTGGGCCAGTATAGTACGCATC
result: Not met
